molecular target: UniProt P41145; assay: Antagonist activity at human opioid kappa receptor expressed in CHO cells assessed as inhibition of U69593-induced [35S]GTP-gamma-S binding after 4 hrs by scintillation counting; assay type: functional, cell-based
Sequence (P41145 whole entry): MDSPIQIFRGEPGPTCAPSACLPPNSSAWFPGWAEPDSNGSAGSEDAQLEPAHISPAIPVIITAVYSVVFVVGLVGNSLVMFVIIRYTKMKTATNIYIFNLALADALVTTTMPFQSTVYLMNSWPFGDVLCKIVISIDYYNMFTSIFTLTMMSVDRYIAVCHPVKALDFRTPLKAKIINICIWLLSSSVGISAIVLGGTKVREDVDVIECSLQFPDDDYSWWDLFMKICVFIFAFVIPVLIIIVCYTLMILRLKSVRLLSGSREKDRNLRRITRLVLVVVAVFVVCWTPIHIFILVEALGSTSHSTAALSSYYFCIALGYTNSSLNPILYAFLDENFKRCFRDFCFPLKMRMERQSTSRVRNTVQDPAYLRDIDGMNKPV
measured-parameter: Kb

| compound | target-desc | reported |
| --- | --- | --- |
| NC(=O)c1ccc(Oc2ccc(CN3CCC[C@H]3c3cccc(F)c3)cc2)c(F)c1 | UniProt P41145 | 1.57 nM |
| NC(=O)c1ccc(Oc2ccc(CN3CCCC3c3cccnc3)cc2)nc1 (racemic) | UniProt P41145 | 5.89 nM |
| NC(=O)c1ccc(Oc2ccc(CN3CCC[C@H]3c3cccnc3)cc2)c(Cl)c1 | UniProt P41145 | 0.632 nM |
| CC1(C)CN(Cc2ccc(Oc3ccc(C(N)=O)cn3)cc2)[C@@H]1c1ccccc1 | UniProt P41145 | 2.46 nM |
| Cc1cc(C)cc([C@@H]2CCCN2Cc2ccc(Oc3ccc(C(N)=O)cc3F)cc2)c1 | UniProt P41145 | 0.813 nM |
| CC1(C)CN(Cc2ccc(Oc3ccc(C(N)=O)cn3)cc2)[C@H]1c1ccccc1 | UniProt P41145 | 15.2 nM |
| NC(=O)c1ccc(Oc2ccc(CNCc3ccccc3)cc2)nc1 | UniProt P41145 | 4.33 nM |
| NC(=O)c1ccc(Oc2ccc(CN3CCCC3c3cccc(F)c3)cc2)c(F)c1 (racemic) | UniProt P41145 | 3.52 nM |
| Cc1cc(C)cc([C@H]2CCCN2Cc2ccc(Oc3ccc(C(N)=O)cc3F)cc2)c1 | UniProt P41145 | 44.8 nM |

----------
Recorded pKi values (Mu-type opioid receptor (Homo sapiens, UniProt P35372)) are given below.
pKi: −log10 of the molar value.
measured-parameter: pKi

| given-smiles | relation-symbol | reported |
| --- | --- | --- |
| NC(=O)c1ccc(Oc2ccc(CN3CCC[C@@H]3c3cccnc3)cc2)c(Cl)c1 | < | 6.30 |
| CC1(C)CN(Cc2ccc(Oc3ccc(C(N)=O)cn3)cc2)[C@@H]1c1ccccc1 | = | 7.37 |
| NC(=O)c1ccc(Oc2ccc(CNCc3ccccc3)cc2)nc1 | = | 8.61 |

----------
Below is a list of entries, each paired with its recorded Kb value.
target: Mu-type opioid receptor (Homo sapiens, UniProt P35372); experiment: Antagonist activity at human opioid mu receptor expressed in CHO cells assessed as inhibition of DAMGO-induced [35S]GTP-gamma-S binding after 4 hrs by scintillation counting; format: functional, cell-based
Sequence (P35372 whole entry): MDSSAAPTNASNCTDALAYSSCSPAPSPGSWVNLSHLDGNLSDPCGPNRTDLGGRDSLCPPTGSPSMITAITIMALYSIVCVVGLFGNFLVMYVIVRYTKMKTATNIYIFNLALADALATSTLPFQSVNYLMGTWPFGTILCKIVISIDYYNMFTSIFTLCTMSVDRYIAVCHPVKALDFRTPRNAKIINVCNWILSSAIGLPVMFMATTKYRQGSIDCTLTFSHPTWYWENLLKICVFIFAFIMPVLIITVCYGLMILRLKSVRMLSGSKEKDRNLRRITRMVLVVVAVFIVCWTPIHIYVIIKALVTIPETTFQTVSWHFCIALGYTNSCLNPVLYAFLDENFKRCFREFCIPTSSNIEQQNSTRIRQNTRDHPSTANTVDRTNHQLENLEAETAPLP
measured-parameter: Kb (nM)

| compound | reported |
| --- | --- |
| Cc1cc(C)cc([C@@H]2CCCN2Cc2ccc(Oc3ccc(C(N)=O)cc3F)cc2)c1 | 17.4 |
| NC(=O)c1ccc(Oc2ccc(CN3CCCC3c3cccnc3)cc2)nc1 (racemic) | 110 |
| CC1(C)CN(Cc2ccc(Oc3ccc(C(N)=O)cn3)cc2)[C@H]1c1ccccc1 | 43.8 |

----------
Ki overview
molecular target: Delta-type opioid receptor (Homo sapiens, UniProt P41143); experiment: Displacement of [3H]diprenorphine from human opioid delta receptor expressed in HEK293 cells after 120 mins by scintillation counting
Sequence (P41143 whole entry): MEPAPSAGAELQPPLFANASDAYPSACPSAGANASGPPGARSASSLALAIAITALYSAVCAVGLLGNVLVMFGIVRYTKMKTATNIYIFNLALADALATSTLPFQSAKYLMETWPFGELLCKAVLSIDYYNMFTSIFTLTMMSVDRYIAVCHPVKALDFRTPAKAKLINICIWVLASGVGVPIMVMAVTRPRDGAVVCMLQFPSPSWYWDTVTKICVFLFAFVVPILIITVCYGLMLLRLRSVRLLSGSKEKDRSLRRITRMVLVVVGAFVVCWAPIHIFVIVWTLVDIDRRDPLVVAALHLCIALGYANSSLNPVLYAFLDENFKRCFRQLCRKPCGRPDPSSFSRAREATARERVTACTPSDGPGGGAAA

| compound | relation-symbol | Ki (nM) |
| --- | --- | --- |
| CC(C)[C@@H](CN1CC[C@@](C)(c2cccc(O)c2)[C@@H](C)C1)NC(=O)[C@H]1Cc2ccc(O)cc2CN1C | > | 500 |
| NC(=O)c1ccc(Oc2ccc(CN3CCC[C@H]3c3cccc(F)c3)cc2)c(F)c1 | = | 211 |
| Cc1cc(C)cc([C@H]2CCCN2Cc2ccc(Oc3ccc(C(N)=O)cc3F)cc2)c1 | = | 165 |
| NC(=O)c1ccc(Oc2ccc(CN3CCCC3c3cccnc3)cc2)c(Cl)c1 (racemic) | = | 251 |
| NC(=O)c1ccc(Oc2ccc(CN3CCC[C@H]3c3cccnc3)cc2)c(Cl)c1 | = | 153 |
| NC(=O)c1ccc(Oc2ccc(CN3CCCC3c3cccc(F)c3)cc2)c(F)c1 (racemic) | = | 187 |
| CC1(C)CN(Cc2ccc(Oc3ccc(C(N)=O)cn3)cc2)[C@@H]1c1ccccc1 | > | 500 |
| CC1(C)CN(Cc2ccc(Oc3ccc(C(N)=O)cn3)cc2)C1c1ccccc1 (racemic) | > | 500 |
| NC(=O)c1ccc(Oc2ccc(CN3CCC[C@@H]3c3cccnc3)cc2)c(Cl)c1 | > | 500 |
